The reported measurements were obtained from the supplement of paper PMC10567573.

Task for the reader: assign each of the following variants its reported protein stability index.
B1: ADD1 (parent)
chain: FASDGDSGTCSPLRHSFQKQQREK

# Variants of: B1
# ASSAY_METHOD_TEXT: protein stability index of a GFP-peptide fusion (GPS, HEK-293T) (PSI 1-6); higher = more stable;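 further: lentivirally expressed fusions sorted by FACS into six bins by GFP to DsRed ratio, PSI derived from sequencing read proportions per bin multiplied by bin number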
# CONDITION_LABEL: c terminus: a fixed tail appended
Give your answer as a number; write no unit.

[in] Find the recorded protein stability index belonging to P12Y and report it.
[out] 3.86

[in] I would be grateful if you could share the reported protein stability index for R22G .
[out] 4.24

[in] # protein stability index lookup, item Q21G
[out] 3.94

[in] For the variant shown here, E23T , give the reported protein stability index.
[out] 3.67

[in] Returns the measured protein stability index for the input variant. Input: D4Q
[out] 3.14

[in] Bench note: what protein stability index did S16A show?
[out] 3.52

[in] Using the record for F1D , report its protein stability index.
[out] 4.91

[in] Which protein stability index value belongs to S16G ?
[out] 3.54

[in] Returns the measured protein stability index for the input variant. Input: Q20T
[out] 4.07

[in] Field request: protein stability index | item: Q20F
[out] 2.8

[in] Look up protein stability index for this variant: K19F
[out] 3.01

[in] Requested field: protein stability index. Item: T9A
[out] 4.16

[in] Consider the variant shown here: Q20K What is its recorded protein stability index?
[out] 3.96

[in] protein stability index for K19M ?
[out] 3.61

[in] What does the record list as protein stability index for R22M ?
[out] 3.77

[in] Using the record for F17T , report its protein stability index.
[out] 3.46

[in] For the variant shown here, K24H , give the reported protein stability index.
[out] 3.25

[in] # lookup: protein stability index of C10F
[out] 1.87

[in] Any idea what its protein stability index is? The variant is E23G
[out] 3.21

[in] What does the record list as protein stability index for A2L ?
[out] 3.7

[in] GET /values?readout=protein stability index&item= C10Y
[out] 1.63

[in] Given the variant S3Q , what is its reported protein stability index?
[out] 4.5
